B1: Dystrobrevin alpha, residues 235 to 294; numbered along this chain, Q9Y4J8 (parent)
chain: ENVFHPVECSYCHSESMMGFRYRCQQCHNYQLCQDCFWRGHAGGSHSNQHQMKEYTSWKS

Variants of: B1
Experiment: abundance fitness (aPCA) (normalised: wild type 0, dead -1); higher = more abundant; growth selection in yeast, the domain comes from the species named
Settings: Homo sapiens
Each record here notes measured abundance fitness.
// no unit string in output, number only

Look over these answered cases.
- residue_string: "ENVFHPVECKYCHSESMMGFRYRCQQCHNYQLCQDCFWRGHAGGSHSNQHQMKEYTSWKS"
  result_number: -0.592
- residue_string: "ENVFHPVECSYCHSESMMGFRYRCQQCHNYQLCQDCFWLGHAGGSHSNQHQMKEYTSWKS"
  result_number: -0.08
- residue_string: "ENVFHPVECSQCHSESMMGFRYRCQQCHNYQLCQDCFWRGHAGGSHSNQHQMKEYTSWKS"
  result_number: -0.223
- residue_string: "ENVFHPVECSYCHSESMMGFRYQCQQCHNYQLCQDCFWRGHAGGSHSNQHQMKEYTSWKS"
  result_number: 0.034
- residue_string: "ENVFHPVECSYCHSESMMGFRYRCQQCHNYQLCQDCFWRGHAGGSHSNQHQMKEYTSSKS"
  result_number: 0.057

What value of abundance fitness has been recorded for this entry: ENVFHPVECSYCHSESMMGFRYRCQQCHNYQLCQDCFWRGHAGGSHSNRHQMKEYTSWKS
0.017

Which measured abundance fitness value corresponds to ENVFHPVECSYCHSESMMGFRYRCQQCHNYQLCQDCFWRGHAGGSHSNHHQMKEYTSWKS ?
-0.141

Name the recorded abundance fitness for ENVFHPVECSYCHSESMMGFRGRCQQCHNYQLCQDCFWRGHAGGSHSNQHQMKEYTSWKS .
-0.658

Name the reported abundance fitness value associated with the variant ENVFHPVECSYCHSESMMGFRYRCQQCHNYQLCQDCFWRGHAGQSHSNQHQMKEYTSWKS
-0.841

For the variant ENVFHPVECSYCHSESMMGFRYRCQQCHNYQLCHDCFWRGHAGGSHSNQHQMKEYTSWKS , what abundance fitness is on record?
-0.156

State the recorded abundance fitness for this entry: ENVFHPVECSYCHSESMMGFRYRCQICHNYQLCQDCFWRGHAGGSHSNQHQMKEYTSWKS
0.011

Ref: the Human Domainome abundance scans (Beltran et al. 2025)
